tested system: hGYS1 enzyme (recombinant hGYS1/GN1 protein) (Homo sapiens (Human))
Sequence (P13807 whole entry): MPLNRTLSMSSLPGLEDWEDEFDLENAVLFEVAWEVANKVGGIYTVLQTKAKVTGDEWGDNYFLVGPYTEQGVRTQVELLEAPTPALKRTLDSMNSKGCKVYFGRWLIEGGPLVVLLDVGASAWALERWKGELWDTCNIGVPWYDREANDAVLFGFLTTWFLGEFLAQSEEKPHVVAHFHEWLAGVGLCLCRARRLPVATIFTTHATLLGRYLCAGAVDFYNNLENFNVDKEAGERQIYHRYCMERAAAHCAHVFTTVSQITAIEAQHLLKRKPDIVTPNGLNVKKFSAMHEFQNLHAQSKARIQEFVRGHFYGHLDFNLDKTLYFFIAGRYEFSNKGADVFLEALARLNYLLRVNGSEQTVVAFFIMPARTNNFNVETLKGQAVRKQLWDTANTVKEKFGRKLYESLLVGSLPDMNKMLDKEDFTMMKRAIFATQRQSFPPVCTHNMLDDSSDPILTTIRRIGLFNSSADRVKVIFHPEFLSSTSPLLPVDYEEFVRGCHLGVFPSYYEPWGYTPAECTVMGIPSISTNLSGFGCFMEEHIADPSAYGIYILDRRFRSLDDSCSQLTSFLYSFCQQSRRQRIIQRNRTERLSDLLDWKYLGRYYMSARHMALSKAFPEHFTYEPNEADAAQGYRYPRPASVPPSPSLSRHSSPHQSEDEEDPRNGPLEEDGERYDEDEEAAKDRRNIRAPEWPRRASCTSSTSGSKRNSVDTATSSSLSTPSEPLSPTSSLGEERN
Sequence (P46976 whole entry partner): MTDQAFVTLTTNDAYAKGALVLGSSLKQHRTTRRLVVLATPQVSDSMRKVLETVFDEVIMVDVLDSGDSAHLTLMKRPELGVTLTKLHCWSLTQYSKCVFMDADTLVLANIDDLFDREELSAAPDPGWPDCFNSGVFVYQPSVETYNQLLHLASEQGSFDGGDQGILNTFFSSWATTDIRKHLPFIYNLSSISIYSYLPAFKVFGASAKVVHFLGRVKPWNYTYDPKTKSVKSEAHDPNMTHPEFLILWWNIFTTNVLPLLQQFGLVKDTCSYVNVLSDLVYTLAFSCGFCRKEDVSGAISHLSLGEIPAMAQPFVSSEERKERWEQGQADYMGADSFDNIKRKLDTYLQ
test name: GYS1 coupled enzyme assay (PK/LDH)
Format: biochemical
run parameters: hGYS1/GN1 50 nM, UDP-Glucose 0.8 mM, G6P 1 mM; geometric mean of at least 2 runs
Below, each entry is listed with its recorded IC50.
property label: IC50

INSERT INTO assay_data (compound, property_label, observed_measurement) VALUES
  ('CC(C)c1ccc([C@@H](NC(=O)[C@@H]2C[C@@H](F)CN2C(=O)CNC(=O)N(C)C)c2ccccc2)cc1', 'IC50', '10 nM'),
  ('O=C(N[C@@H](c1ccccc1)c1ccc(C2CC(F)(F)C2)cn1)[C@@H]1C[C@@H](F)CN1C(=O)CNC(=O)N1CCC1', 'IC50', '43 nM'),
  ('CC(=O)N1C[C@H]2CC[C@H](C(=O)N3C[C@H](F)C[C@H]3C(=O)N[C@@H](c3ccccc3)c3ccc(C(C)C)cc3)[C@H]2C1', 'IC50', '349 nM'),
  ('O=C(N[C@@H](c1ccccc1)c1ccc(C2CC2)c(F)c1)[C@@H]1C[C@@H](F)CN1C(=O)CNC(=O)N1CCN(CC2CC2)CC1', 'IC50', '52 nM'),
  ('CCn1c(=O)c(C)cn(CC(=O)N2C[C@H](F)C[C@H]2C(=O)N[C@@H](c2ccccc2)c2ccc(C3CC(F)(F)C3)c(F)n2)c1=O', 'IC50', '3 nM'),
  ('CC(C)c1ccc([C@@H](NC(=O)[C@@H]2C[C@@H](F)CN2C(=O)c2cc(-c3ccncc3)[nH]n2)c2ccccc2)cc1', 'IC50', '953 nM'),
  ('CC(C)c1ccc([C@@H](NC(=O)[C@@H]2C[C@@H](F)CN2C(=O)Cn2cnnn2)c2ccccc2)nc1', 'IC50', '186 nM'),
  ('CC(C)c1ccc([C@@H](NC(=O)[C@@H]2C[C@@H](F)CN2C(=O)Cc2[nH]nnc2N2CCNCC2)c2ccccc2)cc1F', 'IC50', '537 nM'),
  ('Cc1cn(CC(=O)N2C[C@H](F)C[C@H]2C(=O)N[C@@H](c2ccccc2)c2ccc(C(C)C)c(F)n2)c(=O)n(C)c1=O [Compound 386]', 'IC50', '5 nM'),
  ('CC(C)c1ccc([C@@H](NC(=O)[C@@H]2C[C@@H](F)CN2C(=O)Cc2cnn[nH]2)c2ccc(F)cc2)cc1F', 'IC50', '48 nM'),
  ('CC(C)c1ccc([C@@H](NC(=O)[C@@H]2C[C@@H](F)CN2C(=O)CNC(=O)N2CC(F)(F)C2)c2ccccc2)nc1F', 'IC50', '8 nM'),
  ('O=C(N[C@H](c1ccccc1)c1ccc(C2CC2)c(F)n1)[C@@H]1C[C@@H](F)CN1C(=O)Cc1cccn2c(=O)[nH]nc12', 'IC50', '2620 nM'),
  ('CN(C)C(=O)NCC(=O)N1C[C@H](F)C[C@H]1C(=O)N[C@@H](c1ccccc1)c1ccc(C2CC2)c(F)n1', 'IC50', '28 nM'),
  ('Cc1cc(C(NC(=O)[C@@H]2C[C@@H](F)CN2C(=O)CNC(=O)N(C)C)c2cccnc2N)ccc1C(C)C (single isomer, unassigned)', 'IC50', '443 nM'),
  ('CC(C)c1ccc([C@@H](NC(=O)[C@@H]2C[C@@H](F)CN2C(=O)[C@H]2CNC(=O)O2)c2ccccc2)cc1F', 'IC50', '34 nM'),
  ('CCOc1ncc(CC(=O)N2C[C@H](F)C[C@H]2C(=O)N[C@@H](c2ccccc2)c2ccc(C3CC3)c(F)n2)cc1C', 'IC50', '37 nM'),
  ('CC1(c2ccc([C@@H](NC(=O)[C@@H]3C[C@@H](F)CN3C(=O)CN3CC(=O)NCC3=O)c3ccccc3)cc2F)CC1', 'IC50', '205 nM'),
  ('CC(=O)N1CCC(C)(C(=O)N2C[C@H](F)C[C@H]2C(=O)N[C@@H](c2ccccc2)c2ccc(C(C)C)cc2)C1 (stereo partly shown)', 'IC50', '132 nM'),
  ('CC(=O)N1CC2(CCCC2CC(=O)N2C[C@H](F)C[C@H]2C(=O)N[C@@H](c2ccccc2)c2ccc(C(C)C)cc2)C1 (stereo partly shown)', 'IC50', '113 nM'),
  ('Cc1cc(C)n(CC(=O)N2C[C@H](F)C[C@H]2C(=O)N[C@@H](c2ccccc2)c2ccc(C(C)C)cc2)n1', 'IC50', '23 nM'),
  ('Cc1ccc2c(CC(=O)N3C[C@H](F)C[C@H]3C(=O)N[C@@H](c3ccccc3)c3ccc(C4CC4)c(F)c3)cccc2n1', 'IC50', '20 nM'),
  ('CC(C)c1ccc([C@@H](NC(=O)[C@@H]2C[C@@H](F)CN2C(=O)Cc2[nH]nnc2N2CCN(C(=O)OC(C)(C)C)CC2)c2ccccc2)cc1F', 'IC50', '569 nM'),
  ('CC(C(=O)N1C[C@H](F)C[C@H]1C(=O)N[C@@H](c1ccccc1)c1ccc(C2CC2)c(F)c1)n1cnc2ccccc21 (single isomer, unassigned) [Compound 810]', 'IC50', '357 nM'),
  ('CC(=O)NCC(=O)N1CCC[C@H]1C(=O)NC(c1ccc(C2CC2)c(F)c1)c1cccc2[nH]c(=O)oc12 (single isomer, unassigned)', 'IC50', '2180 nM'),
  ('O=C(N[C@@H](c1ccccc1)c1ccc(C2CC2)c(F)c1)[C@@H]1C[C@@H](F)CN1C(=O)COC(=O)N1CCN(CC2CC2)CC1', 'IC50', '96 nM');
